Cited source: PubChem BioAssay

Test: reduction of polyQ htt aggregates in cells – imaging, exon1htt(103Q)mCFP cells, high-content imaging, primary screen (AID 483);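 note: compound exposure lasted 3 days before fixation; percent of the per-plate median nuclei count of sample wells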
Conditions: exon1htt(103Q)mCFP cell line, aggregate imaging, at 2 µM; measured here: cell count, toxicity
Measurement Type: nuclei count
Answer with the figure and its unit, nothing else.

In [3]: df
Out[3]:
                                   compound  measured_result
0                    Cc1ccc(-c2nn[nH]n2)cc1             117%
1  CC1(C)CC(=O)C=C(NCCN2CCN(C(=O)Nc3ccccc3)CC2)C1            99.6%
2  COCCn1c(CN2CCN(c3ccccc3F)CC2)nc2c1c(=O)n(C)c(=O)n2C            92.3%
3  CCOC(=O)c1nnn(-c2nonc2N)c1CN1CCc2ccccc2C1            80.6%
4  CCOC(=O)C(NC(=O)CC)(Nc1ccc(S(=O)(=O)Nc2onc(C)c2C)cc1)C(F)(F)F (configuration not stated)              95%
5  COc1cccc(C(c2nnnn2Cc2ccccc2)N2CCN(C(=O)c3ccco3)CC2)c1OC (configuration not stated)            69.9%
6  CC(=O)NCCn1c(SCC(=O)NCC2CCCO2)nc2ccccc2c1=O (configuration not stated)             110%
7  COc1ccc(CCNC(=O)C2CCCN(c3nn4c(=O)cc(C)nc4s3)C2)cc1OC (configuration not stated)            94.9%

As a next step, examine the compound that follows.
Provide one value: measured nuclei count of `O=C(Nc1cc(C(F)(F)F)ccc1N1CCCC1)c1ccc2c(c1)OCO2`
84.5%
